Target protein (sequence): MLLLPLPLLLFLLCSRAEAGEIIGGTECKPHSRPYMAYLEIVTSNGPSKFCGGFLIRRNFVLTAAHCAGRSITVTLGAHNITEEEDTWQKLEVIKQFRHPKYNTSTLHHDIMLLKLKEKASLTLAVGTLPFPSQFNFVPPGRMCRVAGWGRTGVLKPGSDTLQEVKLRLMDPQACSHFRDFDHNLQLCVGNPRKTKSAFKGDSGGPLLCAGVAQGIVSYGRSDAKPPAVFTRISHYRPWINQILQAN
READOUT KIND: Ki (nM)

>>> value_reported("CC(C)[C@H](NC(=O)CCc1ccccc1)C(=O)N1CCC[C@H]1C(=O)NC(Cc1ccccc1)C(=O)C(F)(F)C(=O)Nc1cccc(C(=O)O)c1 (stereo partly specified)")
1.3
>>> value_reported("CC(C)[C@H](NC(=O)OC(C)(C)C)C(=O)N1CCC[C@H]1C(=O)NC(Cc1ccccc1)C(=O)C(F)(F)C(=O)NCc1ccccc1 (mixture of isomers; form 1)")
7.4
>>> value_reported("CC(C)[C@H](NC(=O)c1ccccc1)C(=O)N1CCC[C@H]1C(=O)NC(Cc1ccccc1)C(=O)C(F)(F)C(=O)Nc1cccc(C(=O)O)c1 (stereo partly specified)")
3.1
>>> value_reported("CC(C)[C@H](NC(=O)OC(C)(C)C)C(=O)N1CCC[C@H]1C(=O)NC(Cc1ccccc1)C(=O)C(F)(F)C(=O)N[C@@H](Cc1ccccc1)C(=O)O (stereo partly specified)")
513

1 = CC(C)[C@H](NC(=O)OC(C)(C)C)C(=O)N1CCC[C@H]1C(=O)NC(Cc1ccccc1)C(=O)C(F)(F)C(=O)NC(C(=O)O)c1ccccc1 (stereo partly specified)
2 = CC(C)[C@H](NC(=O)OC(C)(C)C)C(=O)N1CCC[C@H]1C(=O)NC(Cc1ccccc1)C(=O)C(F)(F)C(=O)N(C)Cc1ccccc1 (stereo partly specified)
query: Please let me know which one, 1 or 2 , has a lower measured Ki value. Provide the label of your selected option as the answer.
result: 2
